# study_system: T1, EGFR-L858R (Homo sapiens, UniProt P00533, L858R)
# T1 construct: with the advantage of testing full-length integral membrane proteins; (GGGGS)2 linker-Cub (human ubiquitin aa 35-76)-GAL4(1-147)-mNFkB(364-550) (C); expressed in transfected cells
# assay_procedure: MaMTH EGFR-interactor screen, lentiviral preys against EGFR-L858R bait (interaction score)
# Assay type: cell-based
# experimental_context: MaMTH interaction score of prey with EGFR-L858R bait
Item-by-item account of EGFR-L858R mean
When you answer, write just the number.

What value of EGFR-L858R mean has been recorded for this entry: MED28 (protein, UniProt Q9H204 1-178, looked up) Mediator of RNA polymerase II …: MAAPLGGMFSGQPPGPPQAPPGLPGQASLLQAAPGAPRPSSSTLVDELESSFEACFASLVSQDYVNGTDQEEIRTGVDQCIQKFLDIARQTECFFLQKRLQLSVQKPEQVIKEDVSELRNELQRKDALVQKHLTKLRHWQQVLEDINVQHKKPADIPQGSLAYLEQASANIPAPLKPT
1.14

What measured EGFR-L858R mean goes with GRAP2 (protein, UniProt O75791 1-330, looked up) GRB2-related adapter protein 2: MEAVAKFDFTASGEDELSFHTGDVLKILSNQEEWFKAELGSQEGYVPKNFIDIQFPKWFHEGLSRHQAENLLMGKEVGFFIIRASQSSPGDFSISVRHEDDVQHFKVMRDNKGNYFLWTEKFPSLNKLVDYYRTNSISRQKQIFLRDRTREDQGHRGNSLDRRSQGGPHLSGAVGEEIRPSMNRKLSDHPPTLPLQQHQHQPQPPQYAPAPQQLQQPPQQRYLQHHHFHQERRGGSLDINDGHCGTGLGSEMNAALMHRRHTDPVQLQAAGRVRWARALYDFEALEDDELGFHSGEVVEVLDSSNPSWWTGRLHNKLGLFPANYVAPMTR ?
8.12
